# TGT: PARG (Homo sapiens)
# Sequence (Q86W56 whole entry): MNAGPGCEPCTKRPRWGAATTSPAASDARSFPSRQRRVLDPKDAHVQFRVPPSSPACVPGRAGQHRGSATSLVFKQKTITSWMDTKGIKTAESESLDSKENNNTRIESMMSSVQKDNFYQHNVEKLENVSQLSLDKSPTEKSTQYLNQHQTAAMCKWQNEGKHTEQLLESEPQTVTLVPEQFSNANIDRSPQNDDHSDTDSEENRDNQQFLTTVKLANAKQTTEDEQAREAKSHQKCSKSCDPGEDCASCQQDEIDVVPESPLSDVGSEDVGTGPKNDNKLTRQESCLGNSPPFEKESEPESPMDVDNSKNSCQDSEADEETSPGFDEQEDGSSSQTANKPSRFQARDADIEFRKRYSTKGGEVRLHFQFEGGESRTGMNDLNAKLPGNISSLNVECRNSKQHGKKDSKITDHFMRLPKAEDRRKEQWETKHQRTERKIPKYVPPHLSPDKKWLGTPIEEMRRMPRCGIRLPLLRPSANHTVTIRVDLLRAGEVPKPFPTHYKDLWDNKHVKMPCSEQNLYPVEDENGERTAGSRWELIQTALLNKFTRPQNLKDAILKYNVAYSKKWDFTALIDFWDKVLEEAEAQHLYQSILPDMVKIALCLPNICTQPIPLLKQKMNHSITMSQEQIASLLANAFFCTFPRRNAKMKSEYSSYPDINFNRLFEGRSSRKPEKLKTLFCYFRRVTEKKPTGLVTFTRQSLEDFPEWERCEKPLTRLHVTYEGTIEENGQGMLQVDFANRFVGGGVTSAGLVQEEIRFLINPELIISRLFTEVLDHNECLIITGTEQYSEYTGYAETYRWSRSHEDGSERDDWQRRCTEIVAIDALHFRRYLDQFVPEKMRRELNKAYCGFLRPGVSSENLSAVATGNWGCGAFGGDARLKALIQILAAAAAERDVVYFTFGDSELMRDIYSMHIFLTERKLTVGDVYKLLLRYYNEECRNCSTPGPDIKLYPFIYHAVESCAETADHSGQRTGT
# ASSAY: Biochemical assay (PARG, TFMU-ADPr substrate)
# CONDITION SET: PARG, TFMU-ADPr substrate
QUANTITY: IC50 (nM)
Give your result in nM as a bare value.

> print(dat)
                           structure.smiles  reading
1  CC1(C(=O)N2C3CC2CN(c2cc(S(=O)(=O)NC4(C#N)CC4)cn4c(-c5nnc(C(F)F)s5)ncc24)C3)CC1     7.24
2  [2H]C([2H])([2H])C1(NS(=O)(=O)c2cc(N3CCN(C(=O)C(C)C)CC3)c3cnc(-c4nnc(C(F)F)s4)n3c2)CC1     0.88
3  CN(C)CCCOC1(C(=O)N2CCN(c3cc(S(=O)(=O)NC4(C)CC4)cn4c(-c5nnc(C(F)(F)F)s5)ncc34)CC2)CC1     0.48

// next entry
The compound listed as `CN(C)C(=O)N1CC2(CC=C(c3nc(-c4nnc(C(F)F)s4)n4cc(S(=O)(=O)NC5(C#N)CC5)ccc34)C2)C1` shows IC50 equal to 4.84
